Entries and their cytotoxicity at 10 µM
assayRemarks: Toxicity liver stage against HepG2, at 10uM
Assay type: cell-based
Parameters: test concentration 10 uM, cell line HepG2-A16-CD81EGFP
conditionContext: human, HepG2-A16-CD81EGFP cells; read-out: INHIBITION
Your answer is read as %, so omit the unit and give the number.

1) O=C(c1ccco1)N1CC[C@@H](N2CCOCC2)[C@@H]1Cc1ccncc1; -78.2
2) Cc1oc(-c2ccsc2)nc1CC(=O)NCC(=O)Nc1cn[nH]c1; -1.36
3) NC(=O)CCSCc1cc(Br)cc2cccnc12; -7.68
4) COc1cc2cc3c(nc2cc1OC)OCCN(Cc1cccs1)C3; 11.4
5) CN(Cc1nccn1CC(F)(F)F)C(=O)c1ccc(F)c(F)c1; -0.394

molecule CCC(C)N(Cc1sccc1C)C(=O)c1ccc(S(C)(=O)=O)cc1 (configuration not stated) , cytotoxicity at 10 µM observed: 6.7

molecule c1ccc2c(N3CCCCC3Cn3cncn3)ncnc2c1 (configuration not stated) , cytotoxicity at 10 µM observed: 4.16

molecule Cc1ccc(S(=O)(=O)NCCCN2CCC(O)CC2)cc1Cl , cytotoxicity at 10 µM observed: 8.68

molecule COCC(=O)N1CCC(c2cc(-c3ccc(OC)cc3)n[nH]2)C1 (configuration not stated) , cytotoxicity at 10 µM observed: -10.3

molecule CC(C)(C)c1cc(NC(=O)CN2CCCCC2Cn2cncn2)on1 (configuration not stated) , cytotoxicity at 10 µM observed: 0.0788

molecule O=C(NC1CCN(c2ccccc2OC(F)F)C1)c1c[nH]nn1 (configuration not stated) , cytotoxicity at 10 µM observed: -2.54

molecule CCOCC(=O)Nc1ncc(I)cc1C , cytotoxicity at 10 µM observed: -4.76
